Taken from ChEMBL document CHEMBL1201862.

Tested on: Malme-3M
EXPERIMENTAL_DETAILS: NCI tumour cell line growth inhibition, 48 h
Active and inactive are the calls of the source. Cut-off read from the data, not from the text of the source: active = GI50 up to about 1.1 µM and inactive = higher.
// classify into active, inactive

stdin: Please share the test call associated with CC1(C)OCN(c2ccc(Cl)cc2)Cn2c1nc1ccccc12 .
stdout: inactive

stdin: Please share the test call associated with COc1c(C(=O)NCCN(CCNC(=O)c2cccc(-c3cccc(C(=O)N(C)C)c3OC)c2OC)CCNC(=O)c2cccc(-c3cccc(C(=O)N(C)C)c3OC)c2OC)cccc1-c1cccc(C(=O)N(C)C)c1OC .
stdout: inactive

stdin: Please share the test call associated with COC(=O)C(Cc1c[nH]c2ccccc12)NP(=O)(O)OCC1OC(n2cc(I)c(=O)[nH]c2=O)CC1O (stereo not drawn) .
stdout: inactive

stdin: Please share the test call associated with CCC(C#N)N(Cc1ccc(CN(C(=O)c2ccccc2)C(C#N)CC)cc1)C(=O)c1ccccc1 (stereo not drawn) .
stdout: inactive

stdin: Please share the test call associated with COc1cc(C2c3cc4c(cc3OC(NN=C(C)C)C2C)OCO4)cc(OC)c1O (stereo not drawn) .
stdout: inactive

stdin: Please share the test call associated with N#CC12Cc3cc4c(cc3-c3cccc(c31)CCN2C(=O)c1ccccc1)OCO4 (stereo not drawn) .
stdout: inactive

stdin: Please share the test call associated with O=c1[nH]c(=O)c2c([nH]1)[nH]c1ccc(Br)cc12 .
stdout: inactive

stdin: Please share the test call associated with CC[C@](O)(CC(=O)O[C@H]1C(=O)O[C@@H]2C[C@H]3C(C)=CC(=O)[C@@H](O)[C@]3(C)[C@H]3[C@@]4(O)OC[C@]32[C@@H]1[C@@H](C)[C@H]4O)C(C)C .
stdout: active

* * *

For each entry below, report its GI50 value.
Test system: M19-MEL
EXPERIMENTAL_DETAILS: NCI tumour cell line growth inhibition, 48 h
Calls of active or inactive are those of the source. Rule as the data show it: active = GI50 up to about 1.1 µM and inactive = higher.

stdin: Notebook: pull reported GI50 for M19-MEL, entry O=S1(=O)C[C@H](O)[C@H](O)CS1
stdout: > 100 µM (inactive)

stdin: Notebook: pull reported GI50 for M19-MEL, entry CCN(CC)CC(C(C)=O)C(c1ccccc1)c1c(O)c2ccccc2oc1=O (stereo unspecified)
stdout: > 100 µM (inactive)

stdin: Notebook: pull reported GI50 for M19-MEL, entry N#CCCN(c1ccc(/C=N/c2nc(-c3ccccc3)cs2)cc1)S(=O)(=O)c1ccccc1
stdout: > 100 µM (inactive)

stdin: Notebook: pull reported GI50 for M19-MEL, entry COc1ccc(C2C3=C(COC3=O)Oc3cc4c(cc32)OCO4)cc1 (stereo unspecified)
stdout: 15.5 µM (inactive)

stdin: Notebook: pull reported GI50 for M19-MEL, entry O=CN/C=C\c1cc(O)ccc1O
stdout: 11.8 µM (inactive)

stdin: Notebook: pull reported GI50 for M19-MEL, entry CCSC1(SCC)CC(Cc2ccc(OC)cc2)N(/C=N/C(C)(C)C)C1 (stereo unspecified)
stdout: 29 µM (inactive)

* * *

Tested on: NCI/ADR-RES
EXPERIMENTAL_DETAILS: NCI tumour cell line growth inhibition, 48 h
Active and inactive are the calls of the source. Rule as the data show it: active = GI50 up to about 1.1 µM and inactive = higher.
// classify into 1 = active, -1 = inactive

stdin: Please share the test call associated with CCC(C#N)N(Cc1ccc(CN(C(=O)c2ccccc2)C(C#N)CC)cc1)C(=O)c1ccccc1 (stereo not drawn) .
stdout: -1

stdin: Please share the test call associated with COc1ccccc1NC(=S)NN=C(C)c1cccc(C(C)=NNC(=S)Nc2ccccc2OC)n1 .
stdout: -1

stdin: Please share the test call associated with CN(C)/C=C/C=C(/C=N/S(=O)(=O)C(F)(F)F)C1C=CN(S(=O)(=O)C(F)(F)F)C=C1 .
stdout: -1

stdin: Please share the test call associated with Cc1nc(N)c(N2CCN(Cc3ccccc3)CC2)c(O)n1 .
stdout: -1

stdin: Please share the test call associated with Cc1c(N)nc(C(CC(N)=O)NCC(N)C(N)=O)nc1C(=O)NC(C(=O)NC(C)C(O)C(C)C(=O)NC(C(=O)NCCc1nc(-c2nc(C(=O)NCCCNC(C)c3ccccc3)cs2)cs1)C(C)O)C(OC1OC(CO)C(O)C(O)C1OC1OC(CO)C(O)C(OC(N)=O)C1O)c1c[nH]cn1 (stereo not drawn) .
stdout: -1

stdin: Please share the test call associated with CC12CCC(C/C1=N\NC(N)=O)C2(C)C (stereo not drawn) .
stdout: -1

stdin: Please share the test call associated with O=C1O[B-](c2ccccc2)(c2ccccc2)[NH+]2CCCC12 (stereo not drawn) .
stdout: -1

stdin: Please share the test call associated with CSc1nc(=S)[nH]c2[nH]nc(C)c12 .
stdout: -1

stdin: Please share the test call associated with C=CCNC1=C2C[C@@H](C)C[C@@H](OC)C(OC(=O)CCCN(C)C)[C@H](C)/C=C(\C)[C@@H](OC(N)=O)[C@H](OC)/C=C\C=C(/C)C(=O)NC(=CC1=O)C2=O (stereo partly drawn) .
stdout: -1

stdin: Please share the test call associated with Cc1c2c(nc3ccccc13)C(=O)c1cccnc1C2=O .
stdout: -1

stdin: Please share the test call associated with COc1ccc2c(c1)CCC1=CC3(CCC12C)SCCS3 (stereo not drawn) .
stdout: -1

stdin: Please share the test call associated with CC(C)CNC(=O)O .
stdout: -1

stdin: Please share the test call associated with Cc1ccc(C(=O)Nc2ccc(CP(=O)(O)O)cc2)cc1NC(=O)c1cccc(NC(=O)Nc2cccc(C(=O)Nc3cc(C(=O)Nc4ccc(CP(=O)(O)O)cc4)ccc3C)c2)c1 .
stdout: -1

stdin: Please share the test call associated with Clc1cccc(-c2nc3cccc4c3n2Cc2ncccc2-4)c1 .
stdout: -1

stdin: Please share the test call associated with CCCNC1=NC(C)=CSC(Nc2ccccc2)=C1C#N .
stdout: -1

stdin: Please share the test call associated with O=C(c1ccccc1)c1ccc2c(c1)NC(=O)c1ccccc1SSc1ccccc1C(=O)N2 .
stdout: -1

stdin: Please share the test call associated with COc1ccc2[nH]c3c(C)c4ccnc(NCCCN(C)CCCNc5ccc6nnn7c8ccccc8c(=O)c5c67)c4c(C)c3c2c1 .
stdout: 1

stdin: Please share the test call associated with CCN1/C(=C/C#C/C(C)=C\c2sc3ccc(Cl)cc3[n+]2CC)Sc2ccc(Cl)cc21 .
stdout: -1
